experimental_conditions: buffer; pH 7.4; 200.0 µM
This listing pairs compounds with measured solubility kinetic.

The examples below pair each entry with its known result.
O=C(NCc1ccccn1)c1n[nH]c(=O)c2ccccc12: > 42 µg/mL
COc1ccc(C2=NOC(COc3ccc([N+](=O)[O-])cc3)C2)cc1 (configuration not stated): < 0.4 µg/mL
O=C(NC1=NCCS1)C1CCCCC1: > 31.8 µg/mL
CN1CCN(CC/C=C2/c3ccccc3Sc3ccc(S(=O)(=O)N(C)C)cc32)CC1: > 66.5 µg/mL
Cn1cc([N+](=O)[O-])c(C(=O)NCC(=O)O)n1: > 34.2 µg/mL
COc1ccc(C)cc1Nc1nc(-c2ccccc2O)nc2ccccc12: < 0.3 µg/mL

input: So what does the record say about solubility kinetic for `CC(=O)Nc1cc2c(cc1[N+](=O)[O-])OCCO2` ?
output: > 35.7 µg/mL

input: So what does the record say about solubility kinetic for `COc1ccccc1OCC(=O)O/N=C(\N)c1ccccn1` ?
output: > 45.2 µg/mL

Values were extracted from PubChem BioAssay AID1996.
